Biological target: T1, recombinant human TNFR2-hFc protein (human, UniProt P20333 23-257)
T1 construct: also called hTNFR2-Fc; human TNFR2-Fc; not shown: human Fc
T1 sequence: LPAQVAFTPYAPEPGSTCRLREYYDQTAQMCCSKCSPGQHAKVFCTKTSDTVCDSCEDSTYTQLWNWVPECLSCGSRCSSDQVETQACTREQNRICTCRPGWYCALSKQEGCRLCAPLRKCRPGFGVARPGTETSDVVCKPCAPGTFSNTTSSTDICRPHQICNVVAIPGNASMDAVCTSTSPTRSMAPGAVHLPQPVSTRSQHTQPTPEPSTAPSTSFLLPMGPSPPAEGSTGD
Experiment: flow cytometry; hTNFR2-Fc binding to scFv displayed on yeast; one site binding fit (FIG. 4)
READOUT_LABEL: pKd
Numbers only, as −log10 of the molar value.

UC2.3 (S4-2 1D10-1G9) scFv (scFv) scFv: QVQLLESGGGLVQPGGSLRLSCAASGFTFSTYAMSWIRQAPGKGLEWVSIISDGGDATVYADSVKGRFTISRDNSKNTLYLQMNSLRAEDTAVYYCARDGTSAAAFDSWGQGTLVTVSSASSGGSTSGSGKPGSGEGSSGSARDIQMTQSPSSLSASVGDRVTITCQASQDITNFLNWYQQKPGKAPKLLIYDASTLQTGVPSRFSGSGSGTDFTFTISSLQPEDIATYYCQQSDSYPITFGQGTKVEIKR :: 8.05

Quick batch: pKd for everything below.
1. UC1 (S4-2 1B5) scFv (scFv) scFv: QVQLLESGGGLVQPGGSLRLSCAASGFSFTSYAMTWVRQAPGKGLEWVSGISGGGAATFYADSVKGRFTISRDNSKNTLYLQMNSLRAEDTAVYYCARQSQYVGGFDYWGQGTLVTVSSASSGGSTSGSGKPGSGEGSSGSARQSVLTQPPSVSGAPGQRVTISCTGSSSNIGAGYGVHWYQQLPGTAPKLLIYGNTNRPSGVPDRFSGFKSGTSASLAITGLQAEDEADYYCQSYDSSLSGWVFGGGTKLTVLG
2. UC1.1 (S4-2 1B5-1D9) scFv (scFv) scFv: QVQLLESGGGLVQPGGSLRLSCAASGFSFTSYAMTWVRQAPGKGLEWVSGISGGGAATFYADSVKGRFTISRDNSKNTLYLQMNSLRAEDTAVYYCARQSQYVGGFDYWGQGTLVTVSSASSGGSTSGSGKPGSGEGSSGSARQSVLTQPPSVSGAPGQRVTISCTGSSSNIGAGYGVHWYQQLPGTAPKLLIHGNTNRPSGVPDRFSGFKSGTSASLAITGLQAEDEADYYCQSYDSSLSGWVFGGGTKLTVLG
3. UC2 (S4-2 1D10) scFv (scFv) scFv: QVQLLESGGGLVQPGGSLRLSCAASGFTFSTYAMSWVRQAPGKGLEWVSIISDGGDATFYADSVKGRFTISRDNSKNTLYLQMNSLRAEDTAVYYCARDGTSAAAFDSWGQGTLVTVSSASSGGSTSGSGKPGSGEGSSGSARDIQMTQSPSSLSASVGDRVTITCQASQDITNFLNWYQQKPGKAPKLLIYDASTLQTGVPSRFSGSGSGTDFTFTISSLQPEDIATYYCQQSDSYPITFGQGTKVEIKR

[7.74, 8.59, 7.37]

Numbers sourced from patent US20220281990A1.
